All values here come from PubChem BioAssay AID743417.

Tested on: Clone20 osteoblast Shn3 3'UTR firefly luciferase, 24 h
Assay: Shn3 3'UTR reporter inhibitors, dose response, cell-based, Clone20 osteoblasts, luminescence, dry powder, set 2 (AID 743417)
Results filed as inconclusive are left out.
Assign AC50 to each entry below.

Compound: C[C@@H]1CN([C@@H](C)CO)C(=O)c2cc(NC(=O)Nc3ccc(F)cc3)ccc2O[C@@H]1CN(C)Cc1ccc(Oc2ccccc2)cc1
Value kind: AC50
Reported value: 9.38 µM

Please report AC50 for every entry that follows.
1. CC(NNC(=S)N1CCN(c2ccccn2)CC1)c1nccc2ccccc12 (stereo not given)
2. CCC(=O)c1ccc(OCc2ccc(C(=O)c3ccccc3)cc2)cc1
3. CC(=O)OCCCNc1cc(Sc2ccc(C)cc2)c2nonc2c1[N+](=O)[O-]

1: < 0.26 µM; 2: 3.29 µM; 3: 1.1 µM

State recorded AC50 for all listed compounds.
1. CCN(CC)C(=O)C1CCN(S(=O)(=O)c2ccc3oc4ccccc4c3c2)CC1
2. O=C(c1ccc(F)cc1)C(CN1CCOCC1)c1ccccc1 (stereo not given)
3. CC(Nc1ncnc2ccccc12)c1ccccc1 (stereo not given)

["3.96 µM", "17.6 µM", "0.355 µM"]

Quick request: AC50 for each listed item, please.
1. CCCNC(=O)c1nnsc1S(=O)c1ccc(Cl)cc1 (stereo not given)
2. CNC(=O)c1nnsc1S(=O)c1ccc(Cl)cc1 (stereo not given)

1.26 µM
2.02 µM

State its AC50 on Clone20 osteoblast Shn3 3'UTR firefly luciferase, 24 h: O=C(CSc1c2c(nc3ccc(Cl)cc13)CCCC2)N1CCN(C(=O)c2ccco2)CC1
3.75 µM
